- Test system: Abutilon theophrasti (ABUTH)
- test summary: Herbicidal pre-emergence action, test C (Table C5)
- Assay type: in vivo
- reported conditions: dosage 1280 g/ha; visual scoring after about 3 weeks; 100% = plants have died, 0% = like control plants
assay metric: Pre-emergence action against Abutilon theophrasti (ABUTH) (%)

[[record]]
smiles_structure = "Fc1cc(Cl)cnc1Oc1cccc(F)c1-c1cc(C(F)F)no1"
reading = 100

[[record]]
smiles_structure = "Cc1cccc(Oc2ncc(Cl)cc2F)c1-c1cc(C(F)F)no1"
reading = 100

[[record]]
smiles_structure = "Fc1ccc(Oc2ncc(Cl)cc2F)c(-c2cc(C(F)F)on2)c1"
reading = 100

[[record]]
smiles_structure = "CCc1cccc(Oc2ccc(Cl)cn2)c1-c1cc(C(F)F)no1"
reading = 90

[[record]]
smiles_structure = "Cc1cc(C)c(-c2cc(C(F)F)no2)c(Oc2ccccn2)c1"
reading = 100

[[record]]
smiles_structure = "Fc1cc(Cl)cnc1Oc1ccccc1-c1cc(C(F)F)no1"
reading = 100

[[record]]
smiles_structure = "Cc1ccc(-c2cc(C(F)F)no2)c(Oc2ccccn2)c1"
reading = 100

[[record]]
smiles_structure = "Cc1cccc(Oc2ncc(Cl)cc2F)c1-c1cc(C(F)F)on1"
reading = 100

[[record]]
smiles_structure = "Fc1cccc(Oc2ncc(Cl)cc2Cl)c1-c1cc(C(F)F)no1"
reading = 90

